tested on: UACC-62 melanoma; assay: NCI-60 one-dose screen, 48 h (100 = growth as untreated, 0 = no growth, -100 = all killed); details: 10 µM unless noted
About 83,000 compounds went through this panel and 20% of them were active in at least one assay; those are over-represented in the sample as a whole.
This section presents compounds with their documented growth values.
Give the value, in units of %, as a plain number.

Before answering, review these 2 worked examples.
Cc1cc(C(=O)Nc2ccc(SC#N)cc2)c(C)o1 | 93.1
CN1CCN(Cc2ccc(NC(=O)c3cncc(C#Cc4cnc5ccc(NC6CCOCC6)nn45)c3)cc2C(F)(F)F)CC1 | -61.8

Name the reported growth value associated with the compound `Cc1csc(Nc2cccc(Nc3nc(C)cs3)c2)n1`
66.9

Now the same for CC1CCc2c(sc3nc(SCC(=O)N/N=C/c4cccc(O)c4O)n(-c4ccccc4)c(=O)c23)C1 (stereo not given)
84

Same lookup for `CCC(=O)Nc1cc(Nc2cc(NC3CC3)n3ncc(C#N)c3n2)ccc1C` , please.
18.9

Same lookup for `O=C(Nc1cccc(Cl)c1)Nc1nc2ccc(-c3cccc4ccccc34)cc2s1` , please.
42.3

Try CS(=O)c1nccc(-c2c(-c3ccc(F)c(OCCc4ccc(F)cc4)c3)nc3sccn23)n1 (stereo not given) next.
86

Now try `CCOC(=O)c1c(Nc2ccccc2)nn2c(-c3ccc(Br)cc3)ccnc12` .
79.3

Can you check `C#C[C@]1(O)CC[C@H]2[C@@H]3CC=C4c5sc(Nc6nc(C)cc(OC)n6)nc5CC[C@]4(C)[C@H]3CC[C@@]21C` next?
0.98

One more compound: `CCN1CCN(c2cc(C(=O)Nc3nc4ccc(Oc5ccnc(C(=O)NC)c5)cc4s3)cc(C(F)(F)F)c2)CC1`
90.7

Input `COc1ccc(-c2nc(SCC(C)C)nc(N/N=C\c3cccc([N+](=O)[O-])c3)c2C#N)cc1`
75.6

And for `CN1CCN(c2ccc(C(=O)/C=C/c3ccc(Cl)c(C(F)(F)F)c3)cc2)CC1` ?
75.4

Also check `Oc1ccc(-c2nnc(SCc3ccc(O)c4ncccc34)o2)cc1`
-12.7

// query: `COc1ccccc1/C=C/C(=O)c1nnn(-c2ccc(C(=O)O)cc2)c1C`
79.7

Next: `Cc1nn(-c2ccccc2)c2nc(CCl)[nH]c(=O)c12`
96.2

Also need `COc1ccc(-c2ccnc3c(C#N)c(Nc4ccccc4)nn23)cc1OC` , thanks.
85.3

One more compound: CCN1C(=O)N(CC)C2SC(N/N=C/c3ccc(F)cc3)=NC21 (stereo not given)
33.6

Another: `Fc1ccccc1/C=C(/C1=NCCN1)n1cnc2ccccc21`
94.9

And CN1C(=O)N(C)C2Nn3c(s/c(=C\c4ccccn4)c3=O)=NC21 (stereo not given) ?
90.6

Also check `N#C/C(=C\c1ccc(N2CCCCC2)cc1)C(=O)Nc1sc2c(c1C#N)CCC2`
90.2
